Each recorded value in this set is attributed to PubChem BioAssay (NCI).

- Test system: SF-295 CNS
- Experiment summary: NCI tumour cell line growth inhibition, 48 h; in the data active means GI50 below about 0.43 µM; inactive means the rest
Would you mind answering with one of these outcomes? t = active, f = inactive

For this compound, state the assay outcome: CCCCC[C@H]1C/C=C2/C(=O)C=C[C@@H]2C/C=C\CCCC(=O)O1 t

How was COc1cc(N)c(Cl)cc1C(=O)N[C@@H]1CCN(CCCOc2ccc(F)cc2)C[C@@H]1OC classified in this test? f

Outcome logged for CN(C)CCN=c1nc2c(c(N)n1-c1ccccc1)c(=S)n(-c1ccccc1)c(=S)n2-c1ccccc1 in this assay: f

Continuing:
Per the assay record, what outcome was assigned to COc1cc(C2CC(c3ccc(Cl)cc3)=NN2C(C)=O)ccc1Oc1ccnc2cc(Cl)ccc12 (centres undefined) ? f

Hey, what did the test say about COC(=O)c1c(C(=O)O)c(-c2ccccc2)c(-c2ccccc2)c(-c2ccccc2)c1-c1ccccc1 ? f

Which outcome did this test record for the compound COc1cc(C=NCC(=O)CSC(c2ccccc2)c2ccccc2)ccc1O ? f

For this compound, state the assay outcome: COC1CCC(OC)C(c2nc3sccn3c2/C=N/N=C(N)N)C1 (centres undefined) f

What did the test return for CC(C)(O)c1cc(Nc2cc(Oc3cn(C4CC4)nc3C3CCOCC3)ccn2)ccn1 ? f

What was the test verdict on C=C(CN1CCN(c2ccccn2)CC1)c1ccc(C(=O)Nc2ccccc2N)cc1 ? f
